Target: Human DR5-ECD long form polypeptide (human)
Experiment: phage competition ELISA, cross-reactivity
property: IC50 (nM)
Numeric only. Scale: nM

Give the reported IC50 for this binder. GEVCLTLCSRLT (displayed on phage) [LB953]
23.5

Find the measured IC50 of GRVCLTLCSKLR (phage-displayed) [LB954] and report it.
23.5

---
Please supply the value of reported IC50 for the item GEVCLTECSKLT (phage-displayed) [LB963]
11.8
